Data credit: patent US20170121322A1

Test system: B16F10 cells
Experiment: Cell proliferation assay B16F10 (alamarBlue)
Format: cell-based
Conditions: Mus musculus, B16-F10, melanoma (BRAF wild-type) cells, 96 hours
pIC50: −log10 of the molar value.
Rule: Fulfilled for pIC50 not less than 7, Not fulfilled for anything less.

1. COc1ccc(S(=O)(=O)C(C)C)cc1Nc1ccc2c(n1)N(C1CCN(CC(F)(F)F)CC1)[C@H](C)C(=O)N2C : Fulfilled
2. C[C@@H]1C(=O)N(C)c2ccc(Nc3cccc(S(C)(=O)=O)c3)nc2N1C1CCOCC1 : Not fulfilled
3. Cc1ccc(S(C)(=O)=O)cc1Nc1ccc2c(n1)N(C1CCOCC1)[C@H](C)C(=O)N2C : Not fulfilled
4. COc1ccc(S(=O)(=O)C(C)C)cc1Nc1ccc2c(n1)N(C1CCN(C)CC1)[C@H](C)C(=O)N2C : Fulfilled
5. COc1ccc(S(=O)(=O)C(F)(F)F)cc1Nc1ccc2c(n1)N(C1CCN(C)CC1)[C@H](C)C(=O)N2C : Fulfilled
6. COc1ccc(S(=O)(=O)C(C)C)cc1Nc1ccc2c(n1)N(C1CCN(CC(F)F)CC1)[C@H](C)C(=O)N2C : Fulfilled
